Molecular target: Transient receptor potential cation channel subfamily V member 1 (Homo sapiens, UniProt Q8NER1)
Sequence (Q8NER1 whole entry): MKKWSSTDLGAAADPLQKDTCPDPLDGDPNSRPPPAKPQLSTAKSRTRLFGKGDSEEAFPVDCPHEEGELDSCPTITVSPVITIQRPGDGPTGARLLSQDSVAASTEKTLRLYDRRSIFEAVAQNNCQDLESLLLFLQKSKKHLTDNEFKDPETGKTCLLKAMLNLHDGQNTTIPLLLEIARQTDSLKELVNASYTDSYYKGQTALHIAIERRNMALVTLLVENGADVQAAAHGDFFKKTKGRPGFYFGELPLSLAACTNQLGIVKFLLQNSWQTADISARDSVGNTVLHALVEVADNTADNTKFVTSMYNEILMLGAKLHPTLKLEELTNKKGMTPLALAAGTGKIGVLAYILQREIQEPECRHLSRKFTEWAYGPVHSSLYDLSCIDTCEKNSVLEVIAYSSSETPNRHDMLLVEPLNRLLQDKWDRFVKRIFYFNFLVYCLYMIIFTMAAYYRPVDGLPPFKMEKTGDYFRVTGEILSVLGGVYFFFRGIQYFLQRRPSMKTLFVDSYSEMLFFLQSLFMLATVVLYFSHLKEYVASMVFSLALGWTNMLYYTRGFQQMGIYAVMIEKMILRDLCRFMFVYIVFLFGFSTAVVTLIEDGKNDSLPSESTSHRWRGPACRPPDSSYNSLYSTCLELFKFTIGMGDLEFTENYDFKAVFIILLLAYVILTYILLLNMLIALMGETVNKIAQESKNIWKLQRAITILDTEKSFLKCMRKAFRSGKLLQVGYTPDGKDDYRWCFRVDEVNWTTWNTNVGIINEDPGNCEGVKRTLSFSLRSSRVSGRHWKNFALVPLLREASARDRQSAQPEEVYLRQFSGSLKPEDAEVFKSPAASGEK
Experiment: Antagonist activity at human recombinant TRPV1 receptor assessed as inhibition of capsaicin-induced calcium uptake by FLIPR assay
Format: functional
pIC50: −log10 of the molar value.
Output rule met for pIC50 not less than 6; output rule not met otherwise.

1. CC(C)Oc1ccc(C(=O)Nc2ccc3sc(CO)nc3c2)cc1 = rule met
2. CC(C)(C)OCc1ccc(C(=O)Nc2ccc3sc(CO)nc3c2)cc1 = rule met
3. CCOCc1ccc(C(=O)Nc2ccc3sc(CO)nc3c2)cc1 = rule met
4. O=S(=O)(Nc1ccc(C(F)(F)F)cc1)c1ccc2sc(CO)nc2c1 = rule not met

---

Experiment: Aqueous solubility of the compound in sodium phosphate buffer at pH 7.4
Type: physicochemical
solubility overview
readout: solubility (µM)

1) Cc1cc(Br)ccc1C(=O)Nc1ccc2sc(CO)nc2c1 = 10
2) O=C(Nc1ccc2sc(CO)nc2c1)c1ccc(N2CCCCC2)nc1 = 4
3) Cc1nc2cc(NC(=O)c3ccc(C(C)(C)C)cc3)ccc2s1 = 2.2
4) CC(C)(C)OCc1ccc(C(=O)Nc2ccc3sc(CO)nc3c2)cc1 = 11
5) CCOCc1ccc(C(=O)Nc2ccc3sc(CO)nc3c2)cc1 = 37
6) CC(C)(C)Oc1cccc(C(=O)Nc2ccc3sc(CO)nc3c2)c1 = 181
7) O=C(Nc1ccc2sc(CO)nc2c1)c1ccc(Br)cc1 = 5
8) Cn1nc(C(F)(F)F)cc1C(=O)Nc1ccc2sc(CO)nc2c1 = 14
9) C#Cc1ccc(C(=O)Nc2ccc3sc(CO)nc3c2)cc1 = 25
10) O=C(Nc1ccc2sc(CO)nc2c1)c1ccc(CN2CCOCC2)cc1 = 419
11) CC(C)Oc1ccc(C(=O)Nc2ccc3sc(CO)nc3c2)cc1 = 38

---

Assay: Aqueous solubility of the compound in sodium phosphate buffer at pH 7.4
Assay type: physicochemical
solubility overview
readout: solubility (µM)

1) CC(C)(C)c1ccc(C(=O)Nc2ccc3sc(CO)nc3c2)cc1 = 6
2) Cc1cc(Cl)ccc1C(=O)Nc1ccc2sc(CO)nc2c1 = 7
3) O=C(Nc1ccc2sc(CO)nc2c1)c1ccc(C(F)(F)F)nc1 = 61
4) O=C(Nc1ccc2sc(CO)nc2c1)c1ccc(Cl)cc1 = 3
5) O=C(Nc1ccc2sc(CO)nc2c1)C1CCC(C(F)(F)F)CC1 (stereo unspecified) = 77
6) CC(C)(C)Oc1ccc(C(=O)Nc2ccc3sc(CO)nc3c2)cc1 = 64

---

hepatocyte CLint overview
Experiment: Clearance in rat hepatocytes assessed as per 10^6 cells
Assay type: ADME, cell-based, Hepatocyte
Details: read-out: CLH
readout: hepatocyte CLint

1) Cc1cc(Cl)ccc1C(=O)Nc1ccc2sc(CO)nc2c1 = 17 µL/min/1e6 cells
2) Cc1cc(OC(C)C)ccc1C(=O)Nc1ccc2sc(CO)nc2c1 = 12 µL/min/1e6 cells
3) O=C(Nc1ccc2sc(CO)nc2c1)c1ccc(Cl)cc1 = 66 µL/min/1e6 cells
4) Cc1cc(Br)ccc1C(=O)Nc1ccc2sc(CO)nc2c1 = 24 µL/min/1e6 cells
5) O=C(Nc1ccc2sc(CO)nc2c1)c1ccc(Br)cc1 = 54 µL/min/1e6 cells
6) CC(C)Oc1ccc(C(=O)Nc2ccc3sc(CO)nc3c2)cc1 = 57 µL/min/1e6 cells
